residual activity by entry:
Target: UniProt O15530
Sequence (O15530 whole entry, looked up): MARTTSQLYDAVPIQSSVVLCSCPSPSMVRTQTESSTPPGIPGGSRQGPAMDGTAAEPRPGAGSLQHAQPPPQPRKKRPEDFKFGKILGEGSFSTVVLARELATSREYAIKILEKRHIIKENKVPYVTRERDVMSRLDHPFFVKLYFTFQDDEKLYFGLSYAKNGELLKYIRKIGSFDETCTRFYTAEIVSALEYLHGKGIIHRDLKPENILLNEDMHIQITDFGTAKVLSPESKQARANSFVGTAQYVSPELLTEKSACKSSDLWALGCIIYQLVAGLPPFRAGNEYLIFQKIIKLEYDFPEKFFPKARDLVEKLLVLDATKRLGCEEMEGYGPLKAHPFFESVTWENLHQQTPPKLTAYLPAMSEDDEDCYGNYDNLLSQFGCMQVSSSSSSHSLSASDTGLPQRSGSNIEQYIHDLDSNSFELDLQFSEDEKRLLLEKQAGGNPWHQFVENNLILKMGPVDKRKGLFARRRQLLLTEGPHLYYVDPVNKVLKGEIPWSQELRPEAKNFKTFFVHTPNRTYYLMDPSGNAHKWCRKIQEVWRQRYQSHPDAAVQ
Assay: Inhibition of His-tagged human PDK1 expressed in Sf21 cells at 1 uM
Conditions: values are per cent of control
Provide the reading as a plain figure in %.

Below: 5 molecules and their reported residual activity.
CO[C@H]1C[C@@H]2CC[C@@H](C)[C@@](O)(O2)C(=O)C(=O)N2CCCC[C@H]2C(=O)O[C@H]([C@H](C)C[C@@H]2CC[C@@H](O)[C@H](OC)C2)CC(=O)[C@H](C)/C=C(\C)[C@@H](O)[C@@H](OC)C(=O)[C@H](C)C[C@H](C)/C=C/C=C/C=C/1C	110
NCCCn1cc(C2=C(c3c[nH]c4ccccc34)C(=O)NC2=O)c2ccccc21	69
COC[C@H]1OC(=O)c2coc3c2[C@@]1(C)C1=C(C3=O)[C@@H]2CCC(=O)[C@@]2(C)C[C@H]1OC(C)=O [WORTMANNIN]	88
O=C1NC(=O)C(c2c[nH]c3ccccc23)=C1c1c[nH]c2ccccc12	95
Cn1cc(C2=C(c3cn(CCCSC(=N)N)c4ccccc34)C(=O)NC2=O)c2ccccc21 [BISINDOLYLMALEIMIDE IX]	84

INPUT: Please indicate recorded residual activity of CN1C(=O)C(c2c[nH]c3ccccc23)=C(c2c[nH]c3ccccc23)C1=O measured with UniProt O15530.
OUTPUT: 109

INPUT: Give reported residual activity for Cn1cc(C2=C(c3c4n(c5ccccc35)CCC(CN)C4)C(=O)NC2=O)c2ccccc21 (centres undefined) (UniProt O15530)
OUTPUT: 122

INPUT: Enter measured residual activity, system UniProt O15530, for the molecule shown: CN(C)CCCn1cc(C2=C(c3c[nH]c4ccccc34)C(=O)NC2=O)c2ccccc21
OUTPUT: 85

INPUT: Fill in: residual activity on UniProt O15530, entry Cn1cc(C2=C(c3cn(CCCN)c4ccccc34)C(=O)NC2=O)c2ccccc21
OUTPUT: 107
